Values were extracted from PubChem BioAssay AID463195.

- Experiment notes: wild-type TIM10 yeast growth inhibition – luminescence, uHTS, counter-screen for tim10-1 yeast inhibitor project, primary screen (AID 463195);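 also: wild-type TIM10 isogenic control strain grown at permissive 25 °C; 0% = DMSO yeast wells and 100% = minimal medium wells without yeast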
- Particulars: S. cerevisiae TIM10 strain growth, BacTiter-Glo luminescence, 24 h; at 10 µM
The whole screen tested about 330,000 compounds, of which about 4,600 (1.4%) were called active.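 The calls were made as follows: active = inhibition of 40% or more at the single tested concentration; inactive = the rest.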 The list comes from a sample in which actives are over-represented; it also holds close analogues and randomly drawn compounds.
Select the correct class. Options are 1.0 for active, 0.0 for inactive and nothing else.

Example entries begin here.
O=C(Nc1cccc(F)c1)[C@@H]1CCCN1    0.0
O=C(Nc1ccc(-c2csc(Nc3cccc(C(F)(F)F)c3)n2)cc1)c1cccc(C(F)(F)F)c1    0.0
CCOc1ccccc1NC(=S)NC(=O)CCc1ccccc1    0.0
O=C(Nc1ccc(C(F)(F)F)cc1)c1cccc(-n2cnnn2)c1    1.0
COCCNC(=O)/C(C#N)=C/c1cccc(OCc2ccccc2)c1    1.0
COc1ccc(Nc2ccc([N+](=O)[O-])cn2)cn1    0.0
CC1CC(C)(C)NC(=S)N1CCC(=O)N1CCN(Cc2ccccc2)CC1 (configuration not stated)    0.0
O=S(=O)(c1cccc(-c2cn3ccccc3n2)c1)N1CCCC1    0.0

Request: Short answer needed: outcome of this test for Cc1cc(C)c(S(=O)(=O)N2CCC(C(=O)OCc3c(C)noc3C)CC2)c(C)c1 ?
Response: 0.0

Request: Could you kindly confirm the outcome this assay logged for Cc1ccccc1OCC(=O)Nc1ccc(N2CCN(C(=O)C(C)C)CC2)c(Cl)c1 ?
Response: 1.0

====

- Experiment notes: wild-type TIM10 yeast growth inhibition – luminescence, uHTS, counter-screen for tim10-1 yeast inhibitor project, primary screen (AID 463195)
- Particulars: S. cerevisiae TIM10 strain growth, BacTiter-Glo luminescence, 24 h; at 10 µM
Hit rate of the full screen: of about 330,000 compounds, about 4,600 (1.4%) were called active.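 Rule for the calls: active = inhibition of 40% or more at the single tested concentration; inactive = the rest.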 This excerpt belongs to a sample that is enriched for actives.
Outcome (select one): yes (1) = active, no (0) = inactive

Would you please look over these solved cases?
CCOC(=O)c1[nH]c2c(c1-c1ccccc1)C(=O)CC(c1ccc(Cl)cc1)C2 (stereo not given)    no (0)
CCN(C[C@H]1N[C@@](CC)(C(=O)OC)[C@H]2C(=O)N(Cc3ccccc3)C(=O)[C@@H]12)S(=O)(=O)c1ccc(C(F)(F)F)cc1    no (0)
Cc1c(C(=O)OC(C)C)sc(NC(=O)c2cccnc2)c1C#N    no (0)
O=C(NCc1ccco1)c1ccc(Cn2c(=O)c3sccc3n(Cc3ccc(F)cc3)c2=O)cc1    no (0)
COc1ccc(CNC(=O)c2ccc3oc(C(C)C)nc3c2)cc1    no (0)

Request: Give the logged outcome of this assay for the following compound: COC(=O)c1c(NC(=O)CN2CCN(S(=O)(=O)c3ccccc3[N+](=O)[O-])CC2)sc2c1CCC(C)C2 (stereo not given)
Response: no (0)

Request: Hi team, can someone confirm the assay call for C/C(Cc1ccccc1)=N\NC(=O)CNC(=O)c1ccccc1Cl ?
Response: no (0)

Request: What call does the record list for O=C(c1ccc(F)cc1)C1CCN(Cc2cn[nH]c2-c2ccccc2)CC1 ?
Response: no (0)

Request: Dear colleague, could you share the recorded outcome for COC(=O)CNC(=O)C(CCSC)NC(C)=O (stereo not given) when you have a moment?
Response: no (0)

Request: # lookup: test call for CCN(CC)S(=O)(=O)N1CCC(C(=O)NC(C)CCc2ccccc2)CC1 (stereo not given)
Response: no (0)

Request: Hi team, can someone confirm the assay call for CS(=O)(=O)N(CC(=O)N1CCOCC1)c1ccc2c3c(cccc13)CC2 ?
Response: no (0)

Request: Each compound tested received a call. Report the one for C/C=N/NC(=O)CCCC(=O)N/N=C/C .
Response: no (0)

Request: Lab log entry: C=CS(=O)c1sc(Cl)c(N2CCOCC2)c1[N+](=O)[O-] (stereo not given) — outcome as called in the assay?
Response: yes (1)

Request: // outcome(item) with item = Cc1cccc(C)c1NC(=O)Nc1ccccc1-n1ccnc1
Response: no (0)

Request: Query: recorded result category for COc1ccc(N2CCN(C(=O)/C(C#N)=C/c3ccccc3)CC2)cc1 in this test
Response: no (0)

Request: Hi, do you know how COc1ccc(-c2cc(-c3ccc(N)cc3)nc(N)c2C#N)cc1OC came out in this test?
Response: yes (1)

Request: Test call, this compound: Cc1ccc(/C=N/NC(=O)c2cc3ccccc3cc2O)o1
Response: no (0)

Request: For Cn1cc(CCC(=O)NC2CC2)c2ccccc21 , which call appears in the assay record?
Response: no (0)

Request: What is the recorded call for this compound in the test? CCc1ccc(C(=O)NN=C2CCCCCC2)s1
Response: no (0)

Request: What was the test verdict on Cn1c(=O)c2c(nc(NCCNC(=O)c3ccco3)n2Cc2ccccc2F)n(C)c1=O ?
Response: no (0)

====

- Experiment notes: wild-type TIM10 yeast growth inhibition – luminescence, uHTS, counter-screen for tim10-1 yeast inhibitor project, primary screen (AID 463195)
- Particulars: S. cerevisiae TIM10 strain growth, BacTiter-Glo luminescence, 24 h; at 10 µM; stronger effect = higher value
Hit rate of the full screen: of about 330,000 compounds, about 4,600 (1.4%) were called active. Shown is part of a subset that was picked to be rich in actives.
Measurement kind: inhibition (%)
Please state the figure in %; there is no need to write the unit.

CC1=NNC(=O)C1Cc1c(Cl)cccc1Cl (configuration not stated)    13.4
Cc1ccccc1N1CCN(C2CCCN(C(=O)c3ocnc3C)C2)CC1 (configuration not stated)    -0.332
Fc1ccc(-n2c(Cc3ccccc3)nnc2SCc2nc(-c3ccc(Cl)cc3)no2)cc1    41
COC(=O)c1sccc1NC(=O)COc1ccc(Cl)cc1    12.6
CC(=C/c1ccccc1)/C=N/NC(=O)c1cc(C)oc1C    9.24

// below: inhibition requested for another compound
Looking up Cc1ccc2[nH]c3c(=O)n(CC(=O)NCCc4ccc(Cl)cc4)ncc3c2c1 , I see its inhibition listed as -0.819

====

Quick reference: inhibition of the listed items.
- Experiment notes: wild-type TIM10 yeast growth inhibition – luminescence, uHTS, counter-screen for tim10-1 yeast inhibitor project, primary screen (AID 463195);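 also: wild-type TIM10 isogenic control strain grown at permissive 25 °C; 0% = DMSO yeast wells and 100% = minimal medium wells without yeast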
- Particulars: S. cerevisiae TIM10 strain growth, BacTiter-Glo luminescence, 24 h; at 10 µM; stronger effect = higher value
About 4,600 (1.4%) of roughly 330,000 compounds were called active. This is one part of a sample in which actives are shown more often than they occur.
Give just the number in %; leave the unit off.

Before answering, review these 2 worked examples.
COC(=O)c1ccc(CNC(=O)c2ccc(S(=O)(=O)N3CCCCCC3)cc2)cc1    -4.47
CC/S(CC1CC1(Cl)Cl)=N\S(=O)(=O)c1ccc(C)cc1 (stereo not drawn)    0.564

Next, consider the following molecule.
Data point: COc1ccc(C(=O)N2CC3(C)CC2CC(C)(C)C3)cc1OC (stereo not drawn) ; inhibition = 9.33

====

- Experiment notes: wild-type TIM10 yeast growth inhibition – luminescence, uHTS, counter-screen for tim10-1 yeast inhibitor project, primary screen (AID 463195);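 also: wild-type TIM10 isogenic control strain grown at permissive 25 °C; 0% = DMSO yeast wells and 100% = minimal medium wells without yeast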
- Particulars: S. cerevisiae TIM10 strain growth, BacTiter-Glo luminescence, 24 h; at 10 µM
The whole screen tested about 330,000 compounds, of which about 4,600 (1.4%) were called active.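 The calls were made as follows: active = inhibition of 40% or more at the single tested concentration; inactive = the rest.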 This excerpt belongs to a sample that is enriched for actives.
Hello, when you answer, please use one of the following outcomes: Yes for active, No for inactive

C[C@H](NC(=O)OC(C)(C)C)c1nnc(SCC(=O)Nc2ccc(Br)cc2)o1    No
O=C(Nc1nc(-c2ccco2)c(-c2ccco2)s1)c1ccco1    Yes
Cc1ccc2occ(/C=N/NC(=O)c3ccccc3C)c(=O)c2c1    No
O=C1c2ccccc2C(=O)c2c1cccc2N1CCN(CCO)CC1    No
O=C(Nc1nnc(SCc2c(Cl)cccc2Cl)s1)C1CCCO1 (configuration not stated)    Yes

Request: Fill in: this test's call for O=C(Nc1nnc(CCOCCOCCc2nnc(NC(=O)c3ccco3)s2)s1)c1ccco1 is ___
Response: No

Request: What did the test return for C/C(=N\Nc1cccc(C(=O)O)c1)c1ccc2c(c1)Nc1ccccc1S2 ?
Response: No

Request: Which outcome did this test record for the compound O=C1C2C3C=CC(C4CC34)C2C(=O)N1c1nccs1 (configuration not stated) ?
Response: No

Request: Could you kindly confirm the outcome this assay logged for CSc1ccc(C(=O)C2CCCN(C(=O)c3ccc(C)nc3)C2)cc1 (configuration not stated) ?
Response: No

====

- Experiment notes: wild-type TIM10 yeast growth inhibition – luminescence, uHTS, counter-screen for tim10-1 yeast inhibitor project, primary screen (AID 463195);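 also: wild-type TIM10 isogenic control strain grown at permissive 25 °C; 0% = DMSO yeast wells and 100% = minimal medium wells without yeast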
- Particulars: S. cerevisiae TIM10 strain growth, BacTiter-Glo luminescence, 24 h; at 10 µM; stronger effect = higher value
Out of some 330,000 compounds screened, about 4,600 (1.4%) were called active. For the sample, actives were picked, then their nearest neighbours and some compounds at random.
We begin with a simple list: items and their reported inhibition.
The figure you give is taken to be in %; do not add the unit.

The examples below pair each entry with its known result.
COc1cccc(OCc2cc(C(=O)N3CCN(C(=O)c4ccco4)CC3)no2)c1    97.6
COc1ccc(OCc2cc(C(=O)N3CCCC3)no2)c2ccccc12    -11.8

Continue with the next compound.
Given item O=C(c1cc(COc2cccc(C(F)(F)F)c2)on1)N1CCSCC1 , the value recorded as its inhibition is 19.8
